Target: HA of ca A/chicken/Hong Kong/G9/97 (H9N2) virus (influenza A virus)
Assay: cell-based or functional assay
Parameter: Neutralization IC50, H9-HK97
// return the numeric value with its unit appended

| Binder | Reported result |
| --- | --- |
| Antibody 14 (antibody, V domains shown) VH: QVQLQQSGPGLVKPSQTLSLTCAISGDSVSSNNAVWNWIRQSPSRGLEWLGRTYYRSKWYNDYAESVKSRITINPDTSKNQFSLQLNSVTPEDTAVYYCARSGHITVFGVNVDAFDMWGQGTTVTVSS VL: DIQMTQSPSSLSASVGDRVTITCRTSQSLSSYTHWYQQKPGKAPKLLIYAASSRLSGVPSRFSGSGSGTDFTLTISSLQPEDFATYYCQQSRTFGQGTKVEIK | 0.44 µg/mL |

Using the record for Antibody 11 (antibody, V domains shown) VH: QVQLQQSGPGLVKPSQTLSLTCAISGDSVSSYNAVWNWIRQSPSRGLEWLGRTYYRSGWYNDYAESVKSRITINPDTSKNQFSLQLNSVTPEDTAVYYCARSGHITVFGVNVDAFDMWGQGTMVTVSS VL: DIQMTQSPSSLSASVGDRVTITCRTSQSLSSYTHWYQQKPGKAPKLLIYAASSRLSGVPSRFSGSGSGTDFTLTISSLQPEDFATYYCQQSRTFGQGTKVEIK , report its Neutralization IC50, H9-HK97. 0.36 µg/mL

Next: Antibody 13 (antibody, V domains shown) VH: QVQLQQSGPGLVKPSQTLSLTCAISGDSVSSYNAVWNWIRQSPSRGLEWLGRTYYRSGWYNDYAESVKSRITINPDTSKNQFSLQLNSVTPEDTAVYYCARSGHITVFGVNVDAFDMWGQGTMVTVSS VL: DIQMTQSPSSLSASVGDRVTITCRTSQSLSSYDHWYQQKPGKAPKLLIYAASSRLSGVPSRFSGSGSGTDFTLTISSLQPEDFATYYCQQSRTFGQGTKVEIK 0.29 µg/mL

The values you see were collected from patent US20200109188A1.
